Just for reference, ChEMBL document CHEMBL1154057 is where these values come from.

Here the recorded MIC is given for each entry.
System: Streptococcus pneumoniae
Assay: Antibacterial activity against erythromycin-susceptible Streptococcus pneumoniae ATCC 49619

| SMILES STRING | MEASURED TARGET | QUANTITY UNIT | SIGN | MIC |
| --- | --- | --- | --- | --- |
| CC[C@H]1OC(=O)[C@H](C)[C@@H](O[C@H]2C[C@@](C)(OC)[C@@H](OC(=O)NCCc3ccccc3Cl)[C@H](C)O2)[C@H](C)[C@@H](O[C@@H]2O[C@H](C)C[C@H](N(C)C)[C@H]2O)[C@@](C)(O)C[C@@H](C)CN(C)[C@H](C)[C@@H](OC(=O)NCCc2ccc(O)cc2)[C@]1(C)O | Streptococcus pneumoniae | µg/mL | < | 0.03 |
| CC[C@H]1OC(=O)[C@H](C)[C@@H](O[C@H]2C[C@@](C)(OC)[C@@H](OC(=O)NCCc3ccccc3)[C@H](C)O2)[C@H](C)[C@@H](O[C@@H]2O[C@H](C)C[C@H](N(C)C)[C@H]2O)[C@@](C)(O)C[C@@H](C)CN(C)[C@H](C)[C@@H](O)[C@]1(C)O | Streptococcus pneumoniae | µg/mL | = | 0.06 |
| CC[C@H]1OC(=O)[C@H](C)[C@@H](O[C@H]2C[C@@](C)(OC)[C@@H](OC(=O)NCc3ccc(F)cc3)[C@H](C)O2)[C@H](C)[C@@H](O[C@@H]2O[C@H](C)C[C@H](N(C)C)[C@H]2O)[C@@](C)(O)C[C@@H](C)CN(C)[C@H](C)[C@H]2OC(=O)O[C@@]21C | Streptococcus pneumoniae | µg/mL | = | 0.06 |
| CC[C@H]1OC(=O)[C@H](C)[C@@H](O[C@H]2C[C@@](C)(OC)[C@@H](OC(=O)NCc3ccc(F)cc3)[C@H](C)O2)[C@H](C)[C@@H](O[C@@H]2O[C@H](C)C[C@H](N(C)C)[C@H]2O)[C@@](C)(O)C[C@@H](C)CN(C)[C@H](C)[C@@H](OC(=O)NCCc2ccccc2Cl)[C@]1(C)O | Streptococcus pneumoniae | µg/mL | < | 0.03 |

---

Tested on: Streptococcus pneumoniae
Experiment: Antibacterial activity against erythromycin-susceptible Streptococcus pneumoniae ATCC 49619
VALUE KIND: MIC

| SMILES STRING | MEASURED TARGET | OBS VALUE |
| --- | --- | --- |
| CCCNC(=O)O[C@H]1[C@H](C)O[C@@H](O[C@H]2[C@H](C)[C@@H](O[C@@H]3O[C@H](C)C[C@H](N(C)C)[C@H]3O)[C@@](C)(O)C[C@@H](C)CN(C)[C@H](C)[C@H]3OC(=O)O[C@]3(C)[C@@H](CC)OC(=O)[C@@H]2C)C[C@@]1(C)OC | Streptococcus pneumoniae | 0.06 µg/mL |
| CC[C@H]1OC(=O)[C@H](C)[C@@H](O[C@H]2C[C@@](C)(OC)[C@@H](OC(=O)NCc3ccc(OC)cc3)[C@H](C)O2)[C@H](C)[C@@H](O[C@@H]2O[C@H](C)C[C@H](N(C)C)[C@H]2O)[C@@](C)(O)C[C@@H](C)CN(C)[C@H](C)[C@H]2OC(=O)O[C@@]21C | Streptococcus pneumoniae | < 0.03 µg/mL |
| CCCCNC(=O)O[C@@H]1[C@@H](C)N(C)C[C@H](C)C[C@](C)(O)[C@H](O[C@@H]2O[C@H](C)C[C@H](N(C)C)[C@H]2O)[C@@H](C)[C@H](O[C@H]2C[C@@](C)(OC)[C@@H](OC(=O)NCc3ccc(OC)cc3)[C@H](C)O2)[C@@H](C)C(=O)O[C@H](CC)[C@@]1(C)O | Streptococcus pneumoniae | 0.06 µg/mL |
| C=CCNC(=O)O[C@H]1[C@H](C)O[C@@H](O[C@H]2[C@H](C)[C@@H](O[C@@H]3O[C@H](C)C[C@H](N(C)C)[C@H]3O)[C@@](C)(O)C[C@@H](C)CN(C)[C@H](C)[C@@H](O)[C@](C)(O)[C@@H](CC)OC(=O)[C@@H]2C)C[C@@]1(C)OC | Streptococcus pneumoniae | < 0.03 µg/mL |
